Target: Cytochrome P450 1A2 (Homo sapiens)
Sequence (P05177 whole entry): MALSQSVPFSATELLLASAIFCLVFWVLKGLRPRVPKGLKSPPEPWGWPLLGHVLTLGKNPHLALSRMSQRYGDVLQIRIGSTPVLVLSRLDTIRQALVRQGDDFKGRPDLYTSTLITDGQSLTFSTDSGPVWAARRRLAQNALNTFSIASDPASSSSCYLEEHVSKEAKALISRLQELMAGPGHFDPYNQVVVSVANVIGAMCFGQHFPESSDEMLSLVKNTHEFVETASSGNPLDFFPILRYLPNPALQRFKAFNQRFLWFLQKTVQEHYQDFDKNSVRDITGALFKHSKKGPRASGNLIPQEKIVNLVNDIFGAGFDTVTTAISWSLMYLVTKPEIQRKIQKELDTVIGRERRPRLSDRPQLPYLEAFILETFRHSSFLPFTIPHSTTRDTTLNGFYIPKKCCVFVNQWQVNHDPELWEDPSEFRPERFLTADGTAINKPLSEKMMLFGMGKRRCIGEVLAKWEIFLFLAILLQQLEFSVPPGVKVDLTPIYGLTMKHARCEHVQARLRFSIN
Test: Activation of CYP1A2 in human hepatocyte using phenacetin as substrate preincubated for 5 days followed by substrate addition and measured after 1 hr by LC-MS/MS analysis
pEC50: −log10 of the molar value.
measure name: pEC50

Query (compound): COc1ccc(CNC(=O)c2sc3nnc(C)c(C)c3c2N)cc1F ; field requested: pEC50 < 4.30

* * *

Molecular target: Muscarinic acetylcholine receptor M4 (Homo sapiens) (UniProt P08173)
Test: Positive allosteric modulator activity at human M4 receptor expressed in CHO cells co-expressing Gqi5 assessed as maximal response to ACh by calcium mobilization assay relative to contol
Assay type: cell-based
Settings: filed as positive allosteric modulator
Hi there, I'd appreciate the recorded Activity for every entry that follows.
Hi! Could you send only the number? It should be in %, unit omitted.

Entry COc1ccc(CNC(=O)c2sc3nnc(C)c(C)c3c2N)cc1 has what Activity? 83.7

# get_value(readout='Activity', item= COc1ccc(CNC(=O)c2sc3nnc(C)c(C)c3c2N)cc1F ) 80.6

Given Cc1nnc2sc(C(=O)NCc3ccc(O)c(F)c3)c(N)c2c1C , state its recorded Activity. 83.1

Look at this molecule and give its reported Activity. COc1ccc([C@H](C)NC(=O)c2sc3nnc(C)c(C)c3c2N)cc1F 62.4

I am curious: what Activity value has been reported for COc1ncc(CNC(=O)c2sc3nnc(C)c(C)c3c2N)cc1F ? 80.8

Which measured Activity value corresponds to COc1cc(F)c(CNC(=O)c2sc3nnc(C)c(C)c3c2N)cc1F ? 68.5

Using the record for Cc1nnc2sc(C(=O)NCc3ccc(O)cc3)c(N)c2c1C , report its Activity. 69.8

What Activity value was documented for this molecule, COc1c(F)cc(CNC(=O)c2sc3nnc(C)c(C)c3c2N)cc1F ? 75.3

For the molecule shown here, COc1ccc(CNC(=O)c2sc3nnc(C)c(C)c3c2N)c(F)c1F , give the reported Activity. 71.2

Given the entry COc1ccc(CNC(=O)c2sc3nnc(C)c(C)c3c2N)c(F)c1 , report its measured Activity. 75.5

Given COc1cc(F)c(CNC(=O)c2sc3nnc(C)c(C)c3c2N)c(F)c1 , state its recorded Activity. 87.1

Could you tell me which Activity is on file for COc1ccc(CNC(=O)c2sc3nnc(C)c(C)c3c2N)cn1 ? 76.9

* * *

Biological target: Muscarinic acetylcholine receptor M4 (Homo sapiens)
Sequence (P08173 whole entry): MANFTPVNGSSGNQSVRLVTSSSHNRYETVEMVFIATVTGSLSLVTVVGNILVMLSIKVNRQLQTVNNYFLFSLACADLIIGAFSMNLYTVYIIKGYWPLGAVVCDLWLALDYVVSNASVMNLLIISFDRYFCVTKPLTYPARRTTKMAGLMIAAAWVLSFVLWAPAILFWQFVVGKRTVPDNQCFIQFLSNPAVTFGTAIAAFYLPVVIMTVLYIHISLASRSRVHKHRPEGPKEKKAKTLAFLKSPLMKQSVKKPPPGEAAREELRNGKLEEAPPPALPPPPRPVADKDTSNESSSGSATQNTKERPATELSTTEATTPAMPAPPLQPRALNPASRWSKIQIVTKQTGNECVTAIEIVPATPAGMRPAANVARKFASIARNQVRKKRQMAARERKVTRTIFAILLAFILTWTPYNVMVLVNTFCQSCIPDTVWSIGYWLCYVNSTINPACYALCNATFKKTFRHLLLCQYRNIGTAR
Experiment: Positive allosteric modulator activity at human M4 receptor expressed in CHO cells co-expressing Gqi5 in presence of EC20 concentration of acetylcholine by calcium mobilization assay
Format: cell-based
Details: read-out: EC50
Hi there, I'd appreciate the recorded pEC50 for every entry that follows.
Entry type: numeric. Quantity: pEC50, the -log10 of concentration in molar units.

What value of pEC50 has been recorded for this entry: COc1ccc(CNC(=O)c2sc3nnc(C)c(C)c3c2N)cn1 6.62

Field request: pEC50 | item: COc1ncc(CNC(=O)c2sc3nnc(C)c(C)c3c2N)cc1F 6.85

Requested read-out: pEC50. Entry: Cc1nnc2sc(C(=O)NCc3ccc(O)cc3)c(N)c2c1C 7.01

Which value of pEC50 has been reported for COc1cc(F)c(CNC(=O)c2sc3nnc(C)c(C)c3c2N)cc1F in the records? 7.38

What does the record list as pEC50 for COc1ccc([C@H](C)NC(=O)c2sc3nnc(C)c(C)c3c2N)cc1F ? 6.29

Entry under review: Cc1nnc2sc(C(=O)NCc3ccc(O)c(F)c3)c(N)c2c1C . Reported pEC50? 7.23

Which pEC50 value belongs to COc1ccc(CNC(=O)c2sc3nnc(C)c(C)c3c2N)c(F)c1F ? 7.36

Find the recorded pEC50 belonging to COc1cc(F)c(CNC(=O)c2sc3nnc(C)c(C)c3c2N)c(F)c1 and report it. 7.00

For the compound COc1ccc(CNC(=O)c2sc3nnc(C)c(C)c3c2N)c(F)c1 , what pEC50 is on record? 7.04

Consider the compound shown here: COc1c(F)cc(CNC(=O)c2sc3nnc(C)c(C)c3c2N)cc1F What is its recorded pEC50? 7.08

// returns reported pEC50 for input COc1ccc(CNC(=O)c2sc3nnc(C)c(C)c3c2N)cc1 6.89

Origin of the recorded values: ChEMBL document CHEMBL5252536
